target: T1, human GPC3-His protein (human, UniProt P51654 25-559); assay: ELISA, coated human GPC3, antibody 1 nM;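 further: antigen coated at 1 µg/mL on 96-well plates, antibody bound for 2 h at 37 °C, detected with HRP-labeled secondary antibody and TMB, absorbance read at 450 nm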
T1 construct: Bought protein; also called human GPC3 protein; not shown: His tag
endpoint-name: OD450 nm (OD450)
Output spec: scalar in OD450, unitless text.

Some binders with recorded OD450 nm:
[[record]]
binder = "F4.18.4 human-murine chimeric antibody (antibody, human IgG1, kappa, V domains shown) VH: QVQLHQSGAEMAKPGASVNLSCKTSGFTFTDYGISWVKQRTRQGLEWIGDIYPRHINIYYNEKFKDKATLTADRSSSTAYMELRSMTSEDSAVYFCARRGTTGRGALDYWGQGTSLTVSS VL: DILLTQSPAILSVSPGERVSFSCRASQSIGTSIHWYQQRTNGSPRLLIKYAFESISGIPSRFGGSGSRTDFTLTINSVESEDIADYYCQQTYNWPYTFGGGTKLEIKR"
unit_tag = "OD450"
assay_result = 1.41

[[record]]
binder = "F1.111.11 human-murine chimeric antibody (antibody, human IgG1, kappa, V domains shown) VH: EVQLQQSGPELVKPGASVKISCKASGYTFTDYYMNWVKQSHGKSLEWIGDIYPNNGDTTYNQRFKGKATLTVDKSSSTAYMELRSLASEDSAVYYCACPYNNPFGYWGQGTLVTVSA VL: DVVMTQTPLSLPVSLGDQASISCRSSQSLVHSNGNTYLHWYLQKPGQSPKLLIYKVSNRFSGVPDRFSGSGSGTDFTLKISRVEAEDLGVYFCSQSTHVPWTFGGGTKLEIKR"
unit_tag = "OD450"
assay_result = 2.41

[[record]]
binder = "F2.55.11 human-murine chimeric antibody (antibody, human IgG1, kappa, V domains shown) VH: EVKLVESGGGLVKPGGSLKLSCAASGLTFSTCTMSWVRQTPAKRLEWVATISSGGGNTYYPDSVKGRFTISRDNARNTLYLQMSSLRSEDTAMYYCVRLYYDGSPYAMDYWGQGTSVTVSS VL: DIQMTQTTSSLSASLGDRVTISCRASQDISNHLNWYQQKPDGTVKLLIYYTSRLHSGVPSRFSGSGSGTDYSLTISNLEQEDIATYFCQQDSKPPPTFGSGTKLEIKR"
unit_tag = "OD450"
assay_result = 2.24

[[record]]
binder = "F1.73.9 human-murine chimeric antibody (antibody, human IgG1, kappa, V domains shown) VH: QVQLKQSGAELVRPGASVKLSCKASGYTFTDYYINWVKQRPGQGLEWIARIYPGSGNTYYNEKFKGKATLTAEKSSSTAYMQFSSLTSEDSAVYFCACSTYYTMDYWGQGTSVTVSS VL: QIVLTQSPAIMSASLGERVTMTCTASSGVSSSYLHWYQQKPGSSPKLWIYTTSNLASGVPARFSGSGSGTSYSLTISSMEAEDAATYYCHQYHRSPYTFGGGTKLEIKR"
unit_tag = "OD450"
assay_result = 1.33


Now for a further binder.
Enquiry: Look at this binder and give its reported OD450 nm. F1.2.14 human-murine chimeric antibody (antibody, human IgG1, kappa, V domains shown) VH: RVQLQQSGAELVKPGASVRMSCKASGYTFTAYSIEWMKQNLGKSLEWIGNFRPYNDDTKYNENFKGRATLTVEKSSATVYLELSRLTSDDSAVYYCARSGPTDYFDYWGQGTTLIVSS VL: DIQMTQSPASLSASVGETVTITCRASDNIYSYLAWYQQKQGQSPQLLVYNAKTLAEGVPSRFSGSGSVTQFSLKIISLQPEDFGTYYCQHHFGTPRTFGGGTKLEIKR
Return: 1.24
